# TARGET: UniProtKB Q92633
# Sequence (Q92633 whole entry): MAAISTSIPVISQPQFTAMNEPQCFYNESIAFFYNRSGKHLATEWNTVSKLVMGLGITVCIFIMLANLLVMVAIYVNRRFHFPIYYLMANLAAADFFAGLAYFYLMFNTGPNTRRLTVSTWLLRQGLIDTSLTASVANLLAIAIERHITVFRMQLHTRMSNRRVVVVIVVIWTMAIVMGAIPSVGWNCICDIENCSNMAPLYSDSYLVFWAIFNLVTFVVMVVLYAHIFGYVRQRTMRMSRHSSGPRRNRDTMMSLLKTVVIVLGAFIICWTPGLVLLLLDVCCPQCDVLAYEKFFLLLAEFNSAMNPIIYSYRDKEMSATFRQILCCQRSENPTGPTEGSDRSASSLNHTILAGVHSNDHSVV
# TEST NAME: Beta-arrestin recruitment assay to determine IC50 values for human LPAR1
# Type: cell-based
# CONDITION SUMMARY: antagonist mode, Tango EDG2-bla U2OS cells, LPA 18:1 500 nM final
Measured IC50, listed per entry for reference.

SMILES REPRESENTATION	IC50, µM
Cc1ccc(NC(=O)C2(c3ccccc3C(C)C)CN(Cc3cccn3CC(=O)O)C2)c(OC(F)F)n1	0.043
CCCc1ccccc1C1(C(=O)Nc2ccc(C)nc2OC(F)F)CNC1	0.42
Cc1ccc(NC(=O)C2(c3ccccc3C(C)C)CN(C(=O)O[C@@H](C)C(=O)O)C2)c(OC(F)F)n1	0.016
Cc1ccc(NC(=O)C2(c3ccccc3C(C)C)CCN(C[C@@H](O)CO)CC2)c(OC(F)F)n1	0.014
